- tgt: human EHMT1 982-1266 (Homo sapiens, UniProt Q9H9B1)
- Sequence (Q9H9B1 982-1266): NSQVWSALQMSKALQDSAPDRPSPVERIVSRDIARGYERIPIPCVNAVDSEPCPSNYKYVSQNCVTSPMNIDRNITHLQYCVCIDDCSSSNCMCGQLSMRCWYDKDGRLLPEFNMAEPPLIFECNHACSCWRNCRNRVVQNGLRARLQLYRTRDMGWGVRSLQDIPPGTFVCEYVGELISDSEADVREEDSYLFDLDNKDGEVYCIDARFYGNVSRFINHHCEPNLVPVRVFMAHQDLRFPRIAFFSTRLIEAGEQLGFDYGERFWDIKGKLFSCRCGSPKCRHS
- assay.info: EHMT1 enzyme assay on histone peptide substrate (3H-SAM SPA)
- experimental.context: EHMT1 IC50, recombinant human EHMT1 982-1266, histone peptide substrate
List of IC50 values.

Please review the following examples before continuing.
| compound | tgt | IC50 |
| --- | --- | --- |
| CNc1cc(C(C)C)nc(Nc2cc3c(c(C4=CCNCCC4)c2)OCC3)n1 | human EHMT1 982-1266 (Homo sapiens, UniProt Q9H9B1) | < 100 nM |
| Cc1cc(NCC(F)(F)F)cc(Nc2cc3c(c(C4=CCNCCC4)c2)OCC3)n1 | human EHMT1 982-1266 (Homo sapiens, UniProt Q9H9B1) | 100 to 500 nM |
| [2H]C([2H])([2H])CNc1cc(C)nc(Nc2cc3c(c(C4=CCNCCC4)c2)OCCO3)n1 | human EHMT1 982-1266 (Homo sapiens, UniProt Q9H9B1) | 100 to 500 nM |
| CNc1cc(C)nc(Nc2cc3c(c(C4=CCN(C)CCC4)c2Cl)OCCO3)n1 | human EHMT1 982-1266 (Homo sapiens, UniProt Q9H9B1) | < 100 nM |
| CNc1cc(C)nc(Nc2cc3c(c(C4=CCN(C)CC(O)C4)c2C)OCC3)n1 (single isomer, unassigned) [Compound 375] | human EHMT1 982-1266 (Homo sapiens, UniProt Q9H9B1) | 100 to 500 nM |
| CNc1cc(C)nc(Nc2cc3c(c(C4=CCNCC(F)C4)c2F)OCC3)n1 (single isomer, unassigned) [Compound 167] | human EHMT1 982-1266 (Homo sapiens, UniProt Q9H9B1) | < 100 nM |

Attention now turns to another entry.
Tell us which IC50 value is on record for CNc1cc(C)nc(Nc2cc3c(c(C4=CCN(C)CCC4)c2F)OCC3C)n1 (stereo not shown) < 100 nM
